biological target: human full-length MKNK1 (Homo sapiens (Human), UniProt Q9BUB5, T344D); test: MKNK1 kinase assay (MKNK1 TR-FRET assay); format: biochemical; conditions: 10 μM ATP final conc.; 15 min preincubation with enzyme
Sequence (Q9BUB5 other isoform, or with tags, fused parts or gaps T344D): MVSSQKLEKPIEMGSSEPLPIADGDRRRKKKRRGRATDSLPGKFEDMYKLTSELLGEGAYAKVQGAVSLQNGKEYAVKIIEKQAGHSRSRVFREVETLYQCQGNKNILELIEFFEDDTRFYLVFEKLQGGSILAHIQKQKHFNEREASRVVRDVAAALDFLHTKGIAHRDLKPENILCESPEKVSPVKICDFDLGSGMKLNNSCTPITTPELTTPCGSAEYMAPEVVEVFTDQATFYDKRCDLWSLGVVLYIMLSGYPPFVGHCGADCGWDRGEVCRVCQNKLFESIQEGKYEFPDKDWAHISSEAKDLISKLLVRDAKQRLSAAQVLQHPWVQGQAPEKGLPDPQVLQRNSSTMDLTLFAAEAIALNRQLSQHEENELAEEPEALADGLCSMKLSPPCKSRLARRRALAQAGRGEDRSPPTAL
Parameter measured: log10(IC50) (log10 of the value in nM)
Lab note - IC50 converted to log10 from values in nM.

The reported value for N[C@H]1CCC[C@H]1Oc1ccc2ncc(-c3cc4ccccc4o3)n2n1 [Example 25] in terms of log10(IC50) is 0.85

The reported value for N[C@H]1C[C@H](Oc2ccc3ncc(-c4cc5cc(Cl)ccc5o4)n3n2)C1 [Example 37] in terms of log10(IC50) is 0.60

The reported value for C[C@@H](N)COc1ccc2ncc(-c3cc4cc(Cl)ccc4o3)n2n1 [Example 43] in terms of log10(IC50) is 1.52

Lab note: next compound to report on.
The reported value for N[C@H]1C[C@H](Oc2ccc3ncc(-c4cc5cc(F)ccc5o4)n3n2)C1 [Example 39] in terms of log10(IC50) is 0.48
